Please provide measured Ratio (-BP/+BP), DF-25000007 for the entries that follow.
assay-target: T1, IL-18 binding protein (IL-18BP) (UniProt O95998 31-194)
T1 sequence (looked up): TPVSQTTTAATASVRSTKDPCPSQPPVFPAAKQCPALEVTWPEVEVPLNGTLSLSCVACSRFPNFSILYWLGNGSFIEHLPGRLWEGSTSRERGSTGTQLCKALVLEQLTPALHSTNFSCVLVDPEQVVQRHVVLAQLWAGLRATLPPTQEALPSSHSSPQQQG
assay-notes: cell-based or functional assay
Numbers only.

Some solved entries appear below for comparison.
[
  {
    "binder": "IL-18 variant G3P, E6V, K53A, D54W, S55P, T63S, N91L, R104K, Q154R (ligand) YFPKLVSKLSVIRNLNDQVLFIDQGNRPLFEDMTDSDMRDNAPRTIFIISMYAWPQPRGMAVSISVKSEKISTLSSENKIISFKEMNPPDLIKDTKSDIIFFQKSVPGHDNKMQFESSSYEGYFLASEKERDLFKLILKKEDELGDRSIMFTVRNED",
    "Ratio (-BP/+BP), DF-25000007": 0.91
  },
  {
    "binder": "IL-18 variant G3Q, E6Q, K53T, D54W, S55F, N91Y (ligand) YFQKLQSKLSVIRNLNDQVLFIDQGNRPLFEDMTDSDMRDNAPRTIFIISMYTWFQPRGMAVTISVKSEKISTLSSENKIISFKEMNPPDYIKDTKSDIIFFQRSVPGHDNKMQFESSSYEGYFLASEKERDLFKLILKKEDELGDRSIMFTVQNED",
    "Ratio (-BP/+BP), DF-25000007": 1.2
  }
]

Prompt: Param item = IL-18 variant G3Q, E6D, K53S, D54I, S55E, T63S, N91S, R104Q (ligand) YFQKLDSKLSVIRNLNDQVLFIDQGNRPLFEDMTDSDMRDNAPRTIFIISMYSIEQPRGMAVSISVKSEKISTLSSENKIISFKEMNPPDSIKDTKSDIIFFQQSVPGHDNKMQFESSSYEGYFLASEKERDLFKLILKKEDELGDRSIMFTVQNED ; retrieve measured Ratio (-BP/+BP), DF-25000007.
Response: 0.68
